target: T1, human CD33 extracellular domain (human, UniProt P20138 18-259); assay: SPR, Fab captured, 37C
T1 construct: soluble monomeric ECD; also called human CD33 ECD; hCD33
The entries below come with measured koff values attached.
Supply the numeric figure in s⁻¹, leaving out any unit text.

Answered cases to consult:
{"binder": "ADI-10161 Fab (Fab, V domains shown, Fab fragment; also called Ab16) VH: EVQLVESGGGLVQPGGSLRLSCAASGFTFSSYWMSWVRQAPGKGLEWVANINQDGSEKYYVDSVKGRFTISRDNAKNSLYLQMNSLRAEDTAVYYCAREGGDSWYHAFDIWGQGTMVTVSS VL: DIQMTQSPSSVSASVGDRVTITCRASQGISSWLAWYQQKPGKAPKLLIYAASNLQSGVPSRFSGSGSGTDFTLTISSLQPEDFATYYCQQKLSLPLTFGGGTKVEIK", "numeric-result": 0.0118}
{"binder": "ADI-10164 Fab (Fab, V domains shown, Fab fragment; also called Ab18) VH: QVQLQESGPGLVKPSETLSLTCAVSGYSISSGYYWGWIRQPPGKGLEWIGSIYHSGSTNYNPSLKSRVTISVDTSKNQFSLKLSSVTAADTAVYYCARLPPWFGFSYFDLWGRGTLVTVSS VL: EIVLTQSPATLSLSPGERATLSCRASQSVSSYLAWYQQKPGQAPRLLIYDASNRATGIPARFSGSGSGTDFTLTISSLEPEDFAVYYCQQVDNYPPTFGGGTKVEIK", "numeric-result": 0.0101}
{"binder": "ADI-10157 Fab (Fab, V domains shown, Fab fragment; also called Ab13) VH: QVQLQESGPGLVKPSETLSLTCTVSGGSISSYYWSWIRQPPGKGLEWIGSIYYSGSTNYNPSLKSRVTISVDTSKNQFSLKLSSVTAADTAVYYCARVGGVYSTIETYGMDVWGQGTTVTVSS VL: EIVMTQSPATLSVSPGERATLSCRASQSVSSNLAWYQQKPGQAPRLLIYGASTRATGIPARFSGSGSGTEFTLTISSLQSEDFAVYYCQQYTVYPPTFGGGTKVEIK", "numeric-result": 0.0076}

Problem: // Input: ADI-11828 Fab (Fab, V domains shown, Fab fragment; also called Ab27) VH: EVQLVESGGGLVQPGGSLRLSCAASGFTFSSYWMSWVRQAPGKGLEWVANINQDGSEVYYVDSVKGRFTISRDNAKNSLYLQMNSLRAEDTAVYYCARDVGPGIAYQGHFDYWGQGTLVTVSS VL: DIQMTQSPSSLSASVGDRVTITCRASQSIYYYLNWYQQKPGKAPKLLIYAASSRQSGVPSRFSGSGSGTDFTLTISSLQPEDFATYYCQQVYDTPLTFGGGTKVEIK . Output its koff only.
Solution: 0.00351

Problem: Quickly give me recorded koff for ADI-11826 Fab (Fab, V domains shown, Fab fragment; also called Ab26) VH: EVQLVESGGGLVQPGGSLRLSCAASGFTFPGYWMSWVRQAPGKGLEWVANINQDGSEVYYVDSVKGRFTISRDNAKNSLYLQMNSLRAEDTAVYYCAREANYYGNVGDDYWGQGTLVTVSS VL: DIQMTQSPSSLSASVGDRVTITCRASQSIYNYLNWYQQKPGKAPKLLIYAASSTQSGVPSRFSGSGSGTDFTLTISSLQPEDFATYYCQQAFHVPITFGGGTKVEIK
Solution: 0.00463

These entries and their values trace back to patent US20220380459A1.
